Property: binding signal; scope: individual sequences
Molecular target: OsWRKY34 (Oryza sativa, UniProt Q0JBA9 1-250)
Sequence (Q0JBA9 entry or part of it): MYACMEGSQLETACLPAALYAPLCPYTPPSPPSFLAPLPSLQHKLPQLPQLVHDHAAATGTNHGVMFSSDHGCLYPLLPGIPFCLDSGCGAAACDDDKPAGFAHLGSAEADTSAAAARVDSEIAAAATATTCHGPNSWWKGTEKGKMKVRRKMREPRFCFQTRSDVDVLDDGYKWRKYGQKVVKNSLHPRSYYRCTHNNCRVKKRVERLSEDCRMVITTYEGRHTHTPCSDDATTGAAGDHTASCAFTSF
Assay: protein-binding microarray (RPBM); PBS, 2% BSA, 51.3 ng/ul salmon testes DNA, 50 uM zinc acetate, 200 nM TF, 25 C, 1 h; high values mean tight binding
Conditions: protein: recombinant; tags: N-terminal polyhistidine and DsRed monomer fusion (pET32a); label: CyDye5-dUTP incorporated in the synthesized complementary strand; 3' TTTTT single-stranded linker to array surface; dsDNA, one strand shown
Over roughly 68,000 sequences, “fluorescence intensity (a.u.)” has its median near 9,100; the highest 2% begin near 16,000. This excerpt belongs to a sample that is enriched for the highest values.

Look over these answered cases.
CGGTTGACTTTTTTTTTCTAATAAGCCAAAACGGCTTATTCGGAGTCACCTAGTGCAG :: 18800 fluorescence intensity (a.u.)
CATTGTTTTCTAATATTCGGCCATGGCTTTTGACATTTTACGGAGTCACCTAGTGCAG :: 8430 fluorescence intensity (a.u.)
ACAGCGACCTTTTGCTGCAAAGCTTTGTTGGGTTTGGGCTCGGAGTCACCTAGTGCAG :: 8470 fluorescence intensity (a.u.)
TTTTTTTTACCGGCCTAGTTGACCACCAACCAAGCAGTACCGGAGTCACCTAGTGCAG :: 10100 fluorescence intensity (a.u.)

Return binding signal measured with OsWRKY34 (Oryza sativa, UniProt Q0JBA9 1-250) given this sequence: `GTGCAGCAATCATCTCGTCCACCTCACCTTACCCGAAACCCGGAGTCACCTAGTGCAG` 8340 fluorescence intensity (a.u.)

One more sequence: `GACTTTTCGGTTCTTAAGCTGACTTATAATTAGTCTAAACCGGAGTCACCTAGTGCAG` 8630 fluorescence intensity (a.u.)

One more sequence: `TATATATATATATATATATATATTCACAAATTATTTTTCACGGAGTCACCTAGTGCAG` 23500 fluorescence intensity (a.u.)

One more sequence: `TGATTTTTTGACAAACATTTGACCTTTCGTCTTATTTAAACGGAGTCACCTAGTGCAG` 8620 fluorescence intensity (a.u.)

One more sequence: `GTTGACTTTTTGACAAACGTTTGACTTTTCGTCTTATTCACGGAGTCACCTAGTGCAG` 17400 fluorescence intensity (a.u.)

----------
Property: binding signal; scope: individual sequences
Target: OsWRKY34 (Oryza sativa, UniProt Q0JBA9 1-250)
Assay: protein-binding microarray (RPBM); PBS, 2% BSA, 51.3 ng/ul salmon testes DNA, 50 uM zinc acetate, 200 nM TF, 25 C, 1 h; high values mean tight binding
Conditions: protein: recombinant; tags: N-terminal polyhistidine and DsRed monomer fusion (pET32a); label: CyDye5-dUTP incorporated in the synthesized complementary strand; 3' TTTTT single-stranded linker to array surface; dsDNA, one strand shown
In all, about 68,000 sequences were measured (“fluorescence intensity (a.u.)”: median about 9,100, highest 2% from about 16,000 on). This is one part of a sample in which the highest values are shown more often than they occur.

Look over these answered cases.
ATCTAGCCTATCGCTCTTGTGTTCTCGGTGTGTACTTGGTCGGAGTCACCTAGTGCAG :: 16600 fluorescence intensity (a.u.)
CAGGCATGTCCAGTATAGGTGTTATTATATTTTATTATTACGGAGTCACCTAGTGCAG :: 8910 fluorescence intensity (a.u.)
AGGAGGCGGGGCGGGGCGGCGGCGGCGGCGGCGGCGCCCGCGGAGTCACCTAGTGCAG :: 11500 fluorescence intensity (a.u.)
GTTGACGTCTCCCAAGTGCCACACCCGCCGCCACGTCACTCGGAGTCACCTAGTGCAG :: 8880 fluorescence intensity (a.u.)
CGTCGATCTCTATCTCTCTCTCTCGCTTGTTCTTCTTCACCGGAGTCACCTAGTGCAG :: 15200 fluorescence intensity (a.u.)
AGTTTGTCATGGTCTAAAATATTACCCAGGTGTTCTTTGACGGAGTCACCTAGTGCAG :: 8760 fluorescence intensity (a.u.)

Now consider the entry below.
Return binding signal measured with OsWRKY34 (Oryza sativa, UniProt Q0JBA9 1-250) given this sequence: `GTGGGATTAGGATTGGAAAATGAATGAAGGGTTAGAATTACGGAGTCACCTAGTGCAG` 8560 fluorescence intensity (a.u.)

----------
Target: OsWRKY34 (Oryza sativa, UniProt Q0JBA9 1-250)
Experiment: protein-binding microarray (RPBM); PBS, 2% BSA, 51.3 ng/ul salmon testes DNA, 50 uM zinc acetate, 200 nM TF, 25 C, 1 h; high values mean tight binding
Conditions: protein: recombinant; tags: N-terminal polyhistidine and DsRed monomer fusion (pET32a); label: CyDye5-dUTP incorporated in the synthesized complementary strand; 3' TTTTT single-stranded linker to array surface; dsDNA, one strand shown
In all, about 68,000 sequences were measured (“fluorescence intensity (a.u.)”: median about 9,100, highest 2% from about 16,000 on). The full list was thinned out, with the highest values kept by preference.
Measure: binding signal

Look over these answered cases.
TATACTTGTTGGCTGCTGCTTTGTGTGTGGTGTGTTGTTTCGGAGTCACCTAGTGCAG :: 10400 fluorescence intensity (a.u.)
ACCATGTTGACTTTTTGCACATTTATAGAATCTTTTGGTACGGAGTCACCTAGTGCAG :: 21800 fluorescence intensity (a.u.)
GTGTTGTGTTCATCTCCTTCGTTTACTTCTCTTCTCCTCTCGGAGTCACCTAGTGCAG :: 11500 fluorescence intensity (a.u.)
CTTTTTGTTTTGGCCTTGACGTCGTGTTCACCGCCTCTACCGGAGTCACCTAGTGCAG :: 11800 fluorescence intensity (a.u.)

What measured binding signal goes with `TGCCACCACCTTACCCTTTGCCAACATGCATCCGCTCCAACGGAGTCACCTAGTGCAG` ? 19100 fluorescence intensity (a.u.)

One more sequence: `TGATGCCGTTGACTTTTTCTCATATGTTTGACCATTCGTCCGGAGTCACCTAGTGCAG` 44800 fluorescence intensity (a.u.)

One more sequence: `GCACATGTTTGACCATTCATCTTATAAGAAAAAACTTTTGCGGAGTCACCTAGTGCAG` 8090 fluorescence intensity (a.u.)

One more sequence: `GCCGGTCTCCTCCCCGCCACCGCCGCCGCCGCCGCCAATGCGGAGTCACCTAGTGCAG` 8650 fluorescence intensity (a.u.)

One more sequence: `TCCGTGACTATGCTTCTTCTTTTCTTTAATTTTCACCAGACGGAGTCACCTAGTGCAG` 8750 fluorescence intensity (a.u.)

One more sequence: `GGGTGTAATTTTTGTTTTACATGTACGGAATTTTTTACTCCGGAGTCACCTAGTGCAG` 10800 fluorescence intensity (a.u.)

One more sequence: `TTTGCACTGGTTTTGTAAGTTGGGGATGTATTGTATGAGGCGGAGTCACCTAGTGCAG` 9560 fluorescence intensity (a.u.)

One more sequence: `GCTAGCTGCTGTCTTGTGTTGTGTTGTGTTGTGTGGCATGCGGAGTCACCTAGTGCAG` 8220 fluorescence intensity (a.u.)

One more sequence: `CGCCGTTGACTTTTTCTCACATGTTTGACCATTCGTCTTACGGAGTCACCTAGTGCAG` 42500 fluorescence intensity (a.u.)

One more sequence: `ATAGATGACGCCGTTGATTTTTTCTCATATGTTTGACCATCGGAGTCACCTAGTGCAG` 11600 fluorescence intensity (a.u.)

One more sequence: `TTCGCTCACCTCTCGATCGATCGACCTGCCAACATCAACACGGAGTCACCTAGTGCAG` 10400 fluorescence intensity (a.u.)

One more sequence: `GCTGCTGGTGGTGGTAGTAGGACTTGGGGCTCGTGTTGTGCGGAGTCACCTAGTGCAG` 9720 fluorescence intensity (a.u.)

One more sequence: `TGGCTTATCTCGTTTTGTATATCATCTTCTTAATCTTTTTCGGAGTCACCTAGTGCAG` 10500 fluorescence intensity (a.u.)

One more sequence: `AATTTTTTTTGGGGTTGCTGCTGTTTTTTTTGTGGAGGTTCGGAGTCACCTAGTGCAG` 9450 fluorescence intensity (a.u.)

One more sequence: `GTTGACTTTTTTTCACATGTTTGACCATTCATCTTATTCACGGAGTCACCTAGTGCAG` 13400 fluorescence intensity (a.u.)

----------
Molecular target: OsWRKY34 (Oryza sativa, UniProt Q0JBA9 1-250)
Experiment: protein-binding microarray (RPBM); PBS, 2% BSA, 51.3 ng/ul salmon testes DNA, 50 uM zinc acetate, 200 nM TF, 25 C, 1 h; high values mean tight binding
Conditions: protein: recombinant; tags: N-terminal polyhistidine and DsRed monomer fusion (pET32a); label: CyDye5-dUTP incorporated in the synthesized complementary strand; 3' TTTTT single-stranded linker to array surface; dsDNA, one strand shown
In all, about 68,000 sequences were measured (“fluorescence intensity (a.u.)”: median about 9,100, highest 2% from about 16,000 on). What follows is part of a selection rich in the highest values, with near analogues and random picks from the rest.
Property: binding signal; scope: individual sequences

TGTTGTTGCCGGAATGTGTGTGTGTGCGTGTGTGTGTGTGCGGAGTCACCTAGTGCAG :: 8720 fluorescence intensity (a.u.)

What measured binding signal goes with `ATCCATCCATCTATTCGCTTCCCTTTCCTTGCACCTCTGCCGGAGTCACCTAGTGCAG` ? 9050 fluorescence intensity (a.u.)

One more sequence: `CCGATTCCCTGCCGCATCTGCCCGTTGCCCTCGCGCCCGGCGGAGTCACCTAGTGCAG` 8880 fluorescence intensity (a.u.)

One more sequence: `GGTTGCGTTGTTGCGGGCGTTGTTGCGGGCGGGCGGTCAGCGGAGTCACCTAGTGCAG` 16600 fluorescence intensity (a.u.)

One more sequence: `GGCGAGGGGAGAAGAGAAGAGGTGGGTGAGGTGGGGTTTCCGGAGTCACCTAGTGCAG` 12800 fluorescence intensity (a.u.)

One more sequence: `CCATTCTTTCATCTCGCTTCACCTCATCGCCATTGCCATCCGGAGTCACCTAGTGCAG` 8810 fluorescence intensity (a.u.)

One more sequence: `AATGTTTGACGCCGTTGACTTTTTTAAACATGTTTGACCACGGAGTCACCTAGTGCAG` 42500 fluorescence intensity (a.u.)

One more sequence: `AGGTAGTCAAGGTGGACTTATTCCTTTTGTTTCTTCCATTCGGAGTCACCTAGTGCAG` 8900 fluorescence intensity (a.u.)

One more sequence: `TACATCCCTTGCCATCTCCATCGCCGGCTTCCTCGCCATTCGGAGTCACCTAGTGCAG` 17100 fluorescence intensity (a.u.)

One more sequence: `ATATTGGTGGGCGCGGATTTTAATAGGTGGGCGGTGGATTCGGAGTCACCTAGTGCAG` 8430 fluorescence intensity (a.u.)

One more sequence: `TCTTTCTTCCATTGCACCTAGCTTTCATCTTCTTCTCTTCCGGAGTCACCTAGTGCAG` 14200 fluorescence intensity (a.u.)

One more sequence: `AGGAGGTGGTATTATTTTTTTTTTGGTAGAGAGGGGAGGGCGGAGTCACCTAGTGCAG` 16500 fluorescence intensity (a.u.)

One more sequence: `AGGCGCTCCATAGGCCTCGTCATCTTCACAGTCACACACCCGGAGTCACCTAGTGCAG` 11200 fluorescence intensity (a.u.)

One more sequence: `TGGTGGGCGGTGGAGTTATTTTCTTAATAGAGCATTGAGACGGAGTCACCTAGTGCAG` 23900 fluorescence intensity (a.u.)

One more sequence: `CATAAACGACGCCGCATCAGACAAACTAAACGCGACAATACGGAGTCACCTAGTGCAG` 8100 fluorescence intensity (a.u.)
